Origin of values: paper PMC11001709

# Test system: pBR322 plasmid DNA
# Assay notes: Agarose gel electrophoresis, DNA cleavage
# Assay type: biochemical
# Experimental setup: compound 50 (mM in the source), + H2Asc + H2O2
# Method: Electrophoresis assays were performed in 1.5% agarose gel and 1× TBE buffer using the DNA plasmid pBR322. The plasmid (15 µM base pairs) was incubated with 10 and 50 μM concentrations of the coordination compounds for 1 h at 37 °C in presence and absence of ascorbic acid (50 μM) as reducing agent and hydrogen peroxide (500 µM) as ROS generator in a final volume of 20 μL. The DNA-cleaving compound [Cu(phen)2(H2O)](NO3)2 was used as reference. […]
Below, each entry is listed alongside its reported %Damage.
Attribute measured: %Damage (%)

INSERT INTO results (molecule, value_measured) VALUES
  ('Cc1ncc([N+](=O)[O-])n1CCCl.Cc1ncc([N+](=O)[O-])n1CCCl.[Cl][Zn][Cl] [[Zn(cenz)2Cl2]]', 100.00),
  ('Cc1ncc([N+](=O)[O-])n1CCCl.Cc1ncc([N+](=O)[O-])n1CCCl.[Br][Zn][Br] [[Zn(cenz)2Br2]]', 78.40),
  ('Cc1ncc([N+](=O)[O-])n1CC(O)CCl (stereo not drawn) [onz, reference compound]', 8.80),
  ('Cc1ncc([N+](=O)[O-])n1CC(O)CCl.Cc1ncc([N+](=O)[O-])n1CC(O)CCl.[Cl-].[Cl-].[Cu+2] (stereo not drawn) [[Cu(onz)2Cl2]]', 100.00),
  ('Cc1n(CC(O)CCl)c([N+](=O)[O-])c[n+]1[Zn-2]([Br])([Br])[n+]1cc([N+](=O)[O-])n(CC(O)CCl)c1C (stereo not drawn) [[Zn(onz)2Br2]]', 100.00),
  ('Cc1ncc([N+](=O)[O-])n1CCCl.Cc1ncc([N+](=O)[O-])n1CCCl.[Br][Cu][Br] [[Cu(cenz)2Br2]]', 100.00);
